The origin of these recorded values is patent US10144715B2.

# Assay System: Gal4 DNA binding domain fused to the LBD of LXRα in HEK293 cells (Homo sapiens (Human))
# Sequence (Q13133 209-447): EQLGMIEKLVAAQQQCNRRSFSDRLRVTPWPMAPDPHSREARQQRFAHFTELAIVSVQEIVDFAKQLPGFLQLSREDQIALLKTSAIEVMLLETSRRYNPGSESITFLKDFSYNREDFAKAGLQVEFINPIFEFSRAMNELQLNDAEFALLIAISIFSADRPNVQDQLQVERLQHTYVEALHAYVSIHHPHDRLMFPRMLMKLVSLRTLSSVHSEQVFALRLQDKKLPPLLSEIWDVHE
# Test Name: LXR luciferase transcriptional reporter gene assay, agonist mode, LXRα
# Assay type: cell-based
Measured Cell LXRα efficacy, listed per entry.
Property Measured: Cell LXRα efficacy

>  <Compound>
CC(C)[C@@H]1CN(c2ccc(F)c(S(C)(=O)=O)c2)CCN1c1ccc(F)c(C(F)(F)F)n1

>  <Result>
307 (115) %

$$$$
>  <Compound>
CO[C@H]1CC[C@H](CN2CCN(c3ccc(CO)c(S(C)(=O)=O)c3)C[C@@H]2C(C)C)CC1 (single isomer, unassigned)

>  <Result>
1772 (45) %

$$$$
>  <Compound>
CC(C)[C@H]1CN(c2ccc(C#N)c(S(C)(=O)=O)c2)CCN1C[C@H]1CC[C@@H](C(F)(F)F)CC1

>  <Result>
181 (100) %

$$$$
>  <Compound>
CC(C)[C@@H]1CN(c2cccc(S(C)(=O)=O)c2)CCN1C[C@H]1CC[C@H](C(F)(F)F)CC1 (single isomer, unassigned)

>  <Result>
9657 (80) %

$$$$
>  <Compound>
CC(C)[C@H]1CN(c2cccc(S(C)(=O)=O)c2)CCN1C[C@@H]1CC[C@@H](C(F)(F)F)OC1 (single isomer, unassigned)

>  <Result>
523 (82) %

$$$$
>  <Compound>
CC(C)[C@H]1CN(c2ccc(C#N)c(S(C)(=O)=O)c2)CCN1Cc1ccc(C(F)(F)F)cc1

>  <Result>
2479 (57) %

$$$$
>  <Compound>
NS(=O)(=O)c1cccc(N2CCN(C[C@H]3CC[C@H](C(F)F)CC3)[C@@H](c3ccccc3)C2)c1 (single isomer, unassigned)

>  <Result>
2703 (20) %

$$$$
